# credit: patent US7449465B2

Biological target: GSK3β (Homo sapiens)
Sequence (P49841 whole entry, species assumed): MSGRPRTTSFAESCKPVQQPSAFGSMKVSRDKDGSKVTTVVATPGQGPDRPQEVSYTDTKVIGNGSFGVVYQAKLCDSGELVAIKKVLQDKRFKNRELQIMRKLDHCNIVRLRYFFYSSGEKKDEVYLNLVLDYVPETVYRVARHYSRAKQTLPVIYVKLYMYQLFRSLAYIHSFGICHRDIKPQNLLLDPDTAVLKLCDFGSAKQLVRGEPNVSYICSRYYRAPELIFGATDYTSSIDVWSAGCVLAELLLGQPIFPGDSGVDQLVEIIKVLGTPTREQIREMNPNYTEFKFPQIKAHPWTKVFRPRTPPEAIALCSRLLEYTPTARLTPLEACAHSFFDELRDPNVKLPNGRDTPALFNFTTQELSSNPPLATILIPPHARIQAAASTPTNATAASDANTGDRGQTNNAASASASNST
Assay: GSK3beta assay (SPA, biotinylated phosphorylated CREB peptide, ATP-P33)
Assay type: biochemical
Settings: ranges of pIC50 (−log IC50 (M)); 1 μM ATP, room temperature, one hour; read-out: GSK3b pIC50 (converted)
Here, each record is paired with measured IC50 data.

The following compounds have reported results that may help.
In [3]: df
Out[3]:
                              sample_smiles  experimental_readout  data_value
0  CC(=O)N(C)c1ccc(-n2nnc3cnc(Nc4cccc(-c5nccn5C)c4)nc32)cc1                  IC50   > 1e-07 M
1  Fc1cccc(-n2nnc3cnc(Nc4cccc(-c5cncnc5)c4)nc32)c1                  IC50   < 1e-08 M
2  N#CCc1cccc(-n2nnc3cnc(Nc4cccc(-c5ccnc(N)n5)c4)nc32)c1                  IC50   < 1e-08 M
3  CN1CCN(c2cccc(Nc3ncc4nnn(-c5cccc(F)c5)c4n3)c2)CC1                  IC50   < 1e-08 M
4  NS(=O)(=O)c1cccc(-n2nnc3cnc(Nc4cccc(-c5cnco5)c4)nc32)c1                  IC50   < 1e-08 M

Entry Cn1ccnc1-c1cccc(Nc2ncc3nnn(-c4ccc5cn[nH]c5c4)c3n2)c1 , GSK3β (Homo sapiens) data, IC50 value: 1e-08 to 1e-07 M

Entry CC(=O)NCc1cccc(-n2nnc3cnc(Nc4cccc(-c5ccnc(N)n5)c4)nc32)c1 , GSK3β (Homo sapiens) data, IC50 value: > 1e-09 M

Entry CC(C)CC(=O)NCc1cccc(-n2nnc3cnc(Nc4cccc(-c5cnco5)c4)nc32)c1 , GSK3β (Homo sapiens) data, IC50 value: 1e-08 to 1e-07 M

====

Molecular target: UniProtKB P49840
Experiment: GSK3alpha assay (same as the GSK3beta assay, 0.25 ng/μl GSK3alpha)
Format: biochemical
Conditions: ranges of pIC50 (−log IC50 (M)), 1 μM ATP, read-out: GSK3a pIC50 (converted)
Here, each record is paired with measured IC50 data.

The following compounds have reported results that may help.
>>> print(df.to_string())
                                   compound        data_value
0  COCCOCc1cccc(-n2nnc3cnc(Nc4ccc(C(=O)N5CCN(C)CC5)cc4)nc32)c1 [Compound 111]         < 1e-08 M
1  COCCOCc1cccc(-n2nnc3cnc(Nc4ccc(CN5CCN(C)CC5)cc4)nc32)c1 [Compound 109]  1e-08 to 1e-07 M
2  Fc1cccc(-n2nnc3cnc(Nc4cccc(-c5cccnc5)c4)nc32)c1 [Compound 30]         < 1e-08 M

Could you now look at the following compound, please?
The compound listed as Brc1cccc(-n2nnc3cnc(Nc4ccc(Nc5ncccn5)cc4)nc32)c1 [Compound 54] shows IC50 equal to < 1e-08 M

====

Molecular target: GSK3alpha (Homo sapiens)
Assay: GSK3alpha assay (same as the GSK3beta assay, 0.25 ng/μl GSK3alpha)
Format: biochemical
Conditions: ranges of pIC50 (−log IC50 (M)), 1 μM ATP, read-out: GSK3a pIC50 (converted)
Here, each record is paired with measured IC50 data.

The following compounds have reported results that may help.
In [3]: df
Out[3]:
                                   compound              assay_system        data_value
0  O=C(NCCN1CCOCC1)c1ccc(Nc2ncc3nnn(-c4cccc(CCO)c4)c3n2)cc1  GSK3alpha (Homo sapiens)         < 1e-08 M
1  Cn1cnnc1-c1cccc(Nc2ncc3nnn(-c4cccc(F)c4)c3n2)c1  GSK3alpha (Homo sapiens)         < 1e-08 M
2  Fc1cccc(-n2nnc3cnc(Nc4ccc(-c5nn[nH]n5)cc4)nc32)c1  GSK3alpha (Homo sapiens)         < 1e-08 M
3  OCCc1cccc(-n2nnc3cnc(Nc4ccc(Nc5ncccn5)cc4)nc32)c1  GSK3alpha (Homo sapiens)         < 1e-08 M
4  CCC(C)n1ncn(-c2ccc(Nc3ncc4nnn(-c5cccc(F)c5)c4n3)cc2)c1=O (centres unmarked)  GSK3alpha (Homo sapiens)  1e-08 to 1e-07 M

The compound listed as Cn1nnnc1-c1cccc(Nc2ncc3nnn(-c4ccccc4)c3n2)c1 shows IC50 equal to < 1e-08 M

The compound listed as Fc1cccc(-n2nnc3cnc(Nc4ccc(OCCN5CCOCC5)cc4)nc32)c1 shows IC50 equal to < 1e-08 M

The compound listed as COCCOCc1cccc(-n2nnc3cnc(Nc4ccc(CN5CCC(O)CC5)cc4)nc32)c1 shows IC50 equal to 1e-08 to 1e-07 M

====

Target: GSK3alpha (Homo sapiens, UniProt P49840)
Sequence (P49840 whole entry, species assumed): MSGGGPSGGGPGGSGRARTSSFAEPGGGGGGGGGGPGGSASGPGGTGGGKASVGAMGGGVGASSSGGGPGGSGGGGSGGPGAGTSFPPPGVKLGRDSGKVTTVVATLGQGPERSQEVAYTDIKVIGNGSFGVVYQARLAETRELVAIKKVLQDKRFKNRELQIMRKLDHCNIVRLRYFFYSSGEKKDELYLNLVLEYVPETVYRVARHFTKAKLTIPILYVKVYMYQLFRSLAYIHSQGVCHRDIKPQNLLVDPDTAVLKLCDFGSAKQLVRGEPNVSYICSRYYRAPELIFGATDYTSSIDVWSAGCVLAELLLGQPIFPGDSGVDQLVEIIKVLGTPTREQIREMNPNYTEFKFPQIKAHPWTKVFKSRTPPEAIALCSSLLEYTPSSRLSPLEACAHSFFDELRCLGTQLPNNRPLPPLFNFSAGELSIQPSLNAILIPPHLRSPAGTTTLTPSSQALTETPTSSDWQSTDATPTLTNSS
Test: GSK3alpha assay (same as the GSK3beta assay, 0.25 ng/μl GSK3alpha)
Assay type: biochemical
Conditions: ranges of pIC50 (−log IC50 (M)), 1 μM ATP, read-out: GSK3a pIC50 (converted)
Here, each record is paired with measured IC50 data.

The following molecules have reported results that may help.
In [3]: df
Out[3]:
                              sample_smiles  experimental_readout  data_value
0  Cn1nnc(-c2ccc(Nc3ncc4nnn(-c5cccc(Br)c5)c4n3)cc2)n1                  IC50   < 1e-08 M
1  OCCc1cccc(-n2nnc3cnc(Nc4ccc(CN5CCC(O)CC5)cc4)nc32)c1                  IC50   < 1e-08 M
2  COCCOCc1cccc(-n2nnc3cnc(Nc4ccc(OCCCN5CCN(C)CC5)cc4)nc32)c1                  IC50     1e-08 M
3  COCc1cccc(-n2nnc3cnc(Nc4cccc(-c5nnnn5C)c4)nc32)c1                  IC50   < 1e-08 M
4  Cn1nccc1-c1cccc(Nc2ncc3nnn(-c4cccc(Br)c4)c3n2)c1                  IC50   < 1e-08 M

The molecule listed as CC(=O)NCc1cccc(-n2nnc3cnc(Nc4cccc(-c5ccnc(N)n5)c4)nc32)c1 shows IC50 equal to < 1e-08 M

The molecule listed as Nc1nccc(-c2cccc(Nc3ncc4nnn(-c5cccc(F)c5)c4n3)c2)n1 shows IC50 equal to < 1e-08 M

The molecule listed as CC(C)CC(=O)NCc1cccc(-n2nnc3cnc(Nc4cccc(-c5ccnc(N)n5)c4)nc32)c1 shows IC50 equal to 1e-08 M

The molecule listed as COCCOCc1cccc(-n2nnc3cnc(Nc4ccc(C(=O)NCCN5CCOCC5)cc4)nc32)c1 shows IC50 equal to < 1e-08 M

The molecule listed as O=C(O)c1cc(Nc2ncc3nnn(-c4cccc(F)c4)c3n2)ccc1N1CCOCC1 shows IC50 equal to 1e-08 to 1e-07 M

The molecule listed as O=c1[nH]nc(-c2cccc(Nc3ncc4nnn(-c5cccc(Br)c5)c4n3)c2)[nH]1 shows IC50 equal to < 1e-08 M

The molecule listed as Fc1cccc(-n2nnc3cnc(Nc4cccc(-c5cc[nH]n5)c4)nc32)c1 shows IC50 equal to < 1e-08 M

The molecule listed as COCC(=O)NCc1cccc(-n2nnc3cnc(Nc4ccc(-c5cnco5)cc4)nc32)c1 shows IC50 equal to < 1e-08 M

====

Target: UniProtKB P49841
Experiment: GSK3beta assay (SPA, biotinylated phosphorylated CREB peptide, ATP-P33)
Format: biochemical
Settings: ranges of pIC50 (−log IC50 (M)); 1 μM ATP, room temperature, one hour; read-out: GSK3b pIC50 (converted)
experimental readout: IC50

The following compounds have reported results that may help.
                              sample_smiles  experimental_readout        data_value
0  Fc1cccc(-n2nnc3cnc(Nc4ccc(OCCN5CCOCC5)cc4)nc32)c1                  IC50  1e-08 to 1e-07 M
1  Cn1nccc1-c1cccc(Nc2ncc3nnn(-c4ccccc4)c3n2)c1                  IC50         < 1e-08 M
2  Cn1ccnc1-c1cccc(Nc2ncc3nnn(-c4ccc5c(c4)OCCO5)c3n2)c1                  IC50         < 1e-08 M
3  OCCc1cccc(-n2nnc3cnc(Nc4cccc(-c5nnn[nH]5)c4)nc32)c1                  IC50           1e-08 M
4  Cn1ccnc1-c1cccc(Nc2ncc3nnn(-c4ccc5c(c4)CCC5)c3n2)c1                  IC50         < 1e-08 M
5  OCc1cccc(-n2nnc3cnc(Nc4cccc(-c5cnco5)c4)nc32)c1                  IC50         < 1e-08 M
6  COc1cccc(-n2nnc3cnc(Nc4cccc(-c5ccnc(N)n5)c4)nc32)c1                  IC50         < 1e-08 M
7  CN1CCN(c2ccc(Nc3ncc4nnn(-c5cccc(CCO)c5)c4n3)cc2)CC1                  IC50         < 1e-08 M

Could you now look at the following compound, please?
The compound listed as NC(=O)Cc1cccc(-n2nnc3cnc(Nc4cccc(-c5cnco5)c4)nc32)c1 shows IC50 equal to < 1e-08 M
